Overview of reported combination Emax across a group of compounds:
system: NAMALWA (Burkitt's Lymphoma); test: combination Emax (second highest fraction inhibited in the dose matrix, 72 h); higher = more inhibition; extreme values may be limits of the assay
Write the number on its own, no unit after it.

Field: example entries. Status: answers known.
C[C@@H]1COCCN1c1cc(C2([S@](C)(=N)=O)CC2)nc(-c2ccnc3[nH]ccc23)n1 [AZD6738] + O=C(c1cc(Cc2n[nH]c(=O)c3ccccc23)ccc1F)N1CCN(C(=O)C2CC2)CC1 [Olaparib] (first compound max 10 µM, 7x7, partner max 10 µM) :: 0.938
C[C@@H](Nc1cc(F)cc(F)c1)c1cc(C(=O)N(C)C)cc2c(=O)cc(N3CCOCC3)oc12 [AZD8186] + C1CN(CCC1(C(=O)N[C@@H](CCO)C2=CC=C(C=C2)Cl)N)C3=NC=NC4=C3C=CN4 [AZD5363] (first compound max 10 µM, 7x7, partner max 10 µM) :: 0.485

# CC1(C)CCC(CN2CCN(c3ccc(C(=O)NS(=O)(=O)c4ccc(NCC5CCOCC5)c([N+](=O)[O-])c4)c(Oc4cnc5[nH]ccc5c4)c3)CC2)=C(c2ccc(Cl)cc2)C1 [Venetoclax] + COc1cc(Nc2ncc3c(n2)-c2ccc(Cl)cc2C(c2c(F)cccc2OC)=NC3)ccc1C(=O)O [Alisertib] (first compound max 1 µM, 7x7, partner max 10 µM) with NAMALWA (Burkitt's Lymphoma): combination Emax is 0.661

====

tested on: KP-4 (Pancreatic Carcinoma); test: combination Emax (second highest fraction inhibited in the dose matrix, 72 h); higher = more inhibition; extreme values may be limits of the assay
# combination Emax per entry
Please give only the number in your answer, with no unit.

Answered examples (2):
O=C(c1cc(Cc2n[nH]c(=O)c3ccccc23)ccc1F)N1CCN(C(=O)C2CC2)CC1 [Olaparib] + CN(CC[C@H](CSC1=CC=CC=C1)NC2=C(C=C(C=C2)S(=O)(=O)NC(=O)C3=CC=C(C=C3)N4CCC(CC4)[C@H](C5=CC=CC=C5C6=CC=C(C=C6)Cl)O)S(=O)(=O)C(F)(F)F)CCO [AZD4320] (first compound max 10 µM, 7x7, partner max 1 µM) :: 0.155
CS(=O)(=O)CCNCc1ccc(-c2ccc3ncnc(Nc4ccc(OCc5cccc(F)c5)c(Cl)c4)c3c2)o1 [Lapatinib] + C[C@@H](Oc1cc(-c2cnn(C3CCNCC3)c2)cnc1N)c1c(Cl)ccc(F)c1Cl [Crizotinib] (first compound max 10 µM, 7x7, partner max 10 µM) :: 0.761

# ---- query compound ----
// combination Emax value for C=CCn1c(=O)c2cnc(Nc3ccc(N4CCN(C)CC4)cc3)nc2n1-c1cccc(C(C)(C)O)n1 [AZD1775] + C1CN(CCC1(C(=O)N[C@@H](CCO)C2=CC=C(C=C2)Cl)N)C3=NC=NC4=C3C=CN4 [Capivasertib] (first compound max 3 µM, partner max 3 µM) : 0.787

====

Recorded Bliss excess, one value per entry.
tested on: SK-N-SH (Neuroblastoma); test: Bliss excess, mean over the matrix (fraction); higher = more synergy
Output spec: single numeric token, no unit.

As a guide, the following entries are already answered.
CN(C)CCCOc1ccc(-c2ccc3ncc4c(c3c2)n(C2CCOCC2)c(=O)n4C)cn1 [AZD0156] + O=C(c1cc(Cc2n[nH]c(=O)c3ccccc23)ccc1F)N1CCN(C(=O)C2CC2)CC1 [Olaparib] (first compound max 3 µM, partner max 3 µM) :: -0.0043
CS(=O)(=O)CCNCc1ccc(-c2ccc3ncnc(Nc4ccc(OCc5cccc(F)c5)c(Cl)c4)c3c2)o1 [Lapatinib] + C[C@@H](Oc1cc(-c2cnn(C3CCNCC3)c2)cnc1N)c1c(Cl)ccc(F)c1Cl [Crizotinib] (first compound max 10 µM, 7x7, partner max 10 µM) :: -0.0618
N#Cc1cnc(Nc2cc(NC[C@H]3CNCCO3)c(C(F)(F)F)cn2)cn1 [SRA737] + Nc1ccn([C@@H]2O[C@H](CO)[C@@H](O)C2(F)F)c(=O)n1 [Gemcitabine] (first compound max 10 µM, 7x7, partner max 0.3 µM) :: -0.0168
Cc1c2c(nn1C)CSCc1cc(n(C)n1)CSc1cc(c3ccccc3c1)OCCCc1c(C(=O)O)n(C)c3c-2c(Cl)ccc13 [AZD5991] + C=CCn1c(=O)c2cnc(Nc3ccc(N4CCN(C)CC4)cc3)nc2n1-c1cccc(C(C)(C)O)n1 [AZD1775] (first compound max 1 µM, partner max 1 µM) :: -0.0163
Cc1c2c(nn1C)CSCc1cc(n(C)n1)CSc1cc(c3ccccc3c1)OCCCc1c(C(=O)O)n(C)c3c-2c(Cl)ccc13 [AZD5991] + Cc1cc2ncnn2cc1Nc1ncc2c(n1)n(C1CCOCC1)c(=O)n2C [AZD7648] (first compound max 1 µM, 7x7, partner max 10 µM) :: -0.0211

// sample Cc1cc2ncnn2cc1Nc1ncc2c(n1)n(C1CCOCC1)c(=O)n2C [AZD7648] + CCN(CCO)CCCOc1ccc2c(Nc3cc(CC(=O)Nc4cccc(F)c4)[nH]n3)ncnc2c1 [AZD2811] (first compound max 10 µM, 7x7, partner max 1 µM) , its Bliss excess was 0.0001

The measured Bliss excess associated with COc1cc2ncnc(Nc3ccc(F)c(Cl)c3)c2cc1OCCCN1CCOCC1 [Gefitinib] + CC(C)n1c(=O)n(C)c2cnc3cc(F)c(-c4ccc(OCCCN5CCCCC5)nc4)cc3c21 [AZD1390] (first compound max 10 µM, 7x7, partner max 0.3 µM) reads -0.0718

====

tested on: NAMALWA (Burkitt's Lymphoma); experiment: Bliss excess, mean over the matrix (fraction); higher = more synergy
measurement-kind: Bliss excess
Form field (numeric): enter value without unit.

Cc1cc2ncnn2cc1Nc1ncc2c(n1)n(C1CCOCC1)c(=O)n2C [AZD7648] + O=C(c1cc(Cc2n[nH]c(=O)c3ccccc23)ccc1F)N1CCN(C(=O)C2CC2)CC1 [Olaparib] (first compound max 10 µM, 7x7, partner max 10 µM) :: -0.0119
CCN(CCO)CCCOc1ccc2c(Nc3cc(CC(=O)Nc4cccc(F)c4)[nH]n3)ncnc2c1 [AZD2811] + C=CCn1c(=O)c2cnc(Nc3ccc(N4CCN(C)CC4)cc3)nc2n1-c1cccc(C(C)(C)O)n1 [AZD1775] (first compound max 1 µM, partner max 1 µM) :: -0.0101
C[C@@H](Nc1cc(F)cc(F)c1)c1cc(C(=O)N(C)C)cc2c(=O)cc(N3CCOCC3)oc12 [AZD8186] + CC(=O)c1c(C)c2cnc(Nc3ccc(N4CCNCC4)cn3)nc2n(C2CCCC2)c1=O [Palbociclib] (first compound max 10 µM, 7x7, partner max 10 µM) :: 0.0544

Proceed to the following item.
CC(=O)Nc1cccc(-n2c(=O)n(C3CC3)c(=O)c3c(Nc4ccc(I)cc4F)n(C)c(=O)c(C)c32)c1 [Trametinib] + Cc1nc(-c2cn3c(n2)-c2ccc(-c4cnn(C(C)(C)C(N)=O)c4)cc2OCC3)n(C(C)C)n1 [Taselisib] (first compound max 1 µM, 7x7, partner max 10 µM) on NAMALWA (Burkitt's Lymphoma) gives Bliss excess = 0.0825

====

test system: DBTRG-05MG (Glioblastoma); test: Bliss excess, mean over the matrix (fraction); higher = more synergy
measurement-kind: Bliss excess

Here are 3 compounds together with their reported answers.
Cc1cc2ncnn2cc1Nc1ncc2c(n1)n(C1CCOCC1)c(=O)n2C [AZD7648] + CN(C)CCCOc1ccc(-c2ccc3ncc4c(c3c2)n(C2CCOCC2)c(=O)n4C)cn1 [AZD0156] (first compound max 10 µM, 7x7, partner max 1 µM) :: -0.0363
Cc1c2c(nn1C)CSCc1cc(n(C)n1)CSc1cc(c3ccccc3c1)OCCCc1c(C(=O)O)n(C)c3c-2c(Cl)ccc13 [AZD5991] + Cn1cnc2c(F)c(Nc3ccc(Br)cc3Cl)c(C(=O)NOCCO)cc21 [Selumetinib] (first compound max 1 µM, 7x7, partner max 3 µM) :: 0.0307
CCN(CCO)CCCOc1ccc2c(Nc3cc(CC(=O)Nc4cccc(F)c4)[nH]n3)ncnc2c1 [AZD2811] + C=CCn1c(=O)c2cnc(Nc3ccc(N4CCN(C)CC4)cc3)nc2n1-c1cccc(C(C)(C)O)n1 [AZD1775] (first compound max 1 µM, partner max 1 µM) :: -0.0402

CN(CCO)CC[C@H](CSc1ccccc1)Nc1ccc(S(=O)(=O)NC(=O)c2ccc(N3CCC([C@@H](O)c4ccccc4-c4ccc(Cl)cc4)CC3)cc2)cc1S(=O)(=O)C(F)(F)F [AZD4320] + Cc1cc2ncnn2cc1Nc1ncc2c(n1)n(C1CCOCC1)c(=O)n2C [AZD7648] (first compound max 1 µM, 7x7, partner max 10 µM) has a reported Bliss excess of -0.0015

# Bliss excess (compound: CN(C)CCCOc1ccc(-c2ccc3ncc4c(c3c2)n(C2CCOCC2)c(=O)n4C)cn1 [AZD0156] + C[C@@H]1COCCN1C2=NC(=NC(=C2)C3(CC3)[S@](=N)(=O)C)C4=C5C=CNC5=NC=C4 [AZD6738] (first compound max 1 µM, 7x7, partner max 10 µM) ) is -0.022

Bliss excess reading for CC(=O)c1c(C)c2cnc(Nc3ccc(N4CCNCC4)cn3)nc2n(C2CCCC2)c1=O [Palbociclib] + Cn1cnc2c(F)c(Nc3ccc(Br)cc3Cl)c(C(=O)NOCCO)cc21 [Selumetinib] (first compound max 10 µM, 7x7, partner max 10 µM) : 0.0013
